Test system: NCI-H226 lung
Assay: NCI-60 one-dose screen, 48 h (100 = growth as untreated, 0 = no growth, -100 = all killed)
Settings: 10 µM
About 83,000 compounds went through this panel and 20% of them were active in at least one assay; those are over-represented in the sample as a whole.
measurement.label: growth (%)

| smiles.structure | tested.target | measurement.label | observed |
| --- | --- | --- | --- |
| CCN(CC)Cc1cc(Nc2ccnc3cc(Cl)ccc23)ccc1OC | NCI-H226 lung | growth | 105 |
| O=C1C(=O)c2ccccc2C(O)=C1CCCc1ccc(C2CCCCCC2)cc1 | NCI-H226 lung | growth | 37.6 |
| CCN(CC)CCSCCN(CC)CC | NCI-H226 lung | growth | 101 |
| CC/C(=C(/c1ccc(OCCN(C)C)cc1)c1ccc(OC(=O)CCCCCCCCC(=O)c2c(C)[nH]c(/C=C3\N=C(c4ccc[nH]4)C=C3OC)c2C)cc1)c1ccccc1 | NCI-H226 lung | growth | 52.6 |
| CCCCCCN1CCN(Cc2ccc(N(CC)CC)cc2)C(=O)C1=O | NCI-H226 lung | growth | 64.2 |
| CCCCCCCCCCCCCCCCCC(=O)OCCCCCCC | NCI-H226 lung | growth | 89.6 |

----------
System: M14 melanoma
Assay: NCI-60 one-dose screen, 48 h (100 = growth as untreated, 0 = no growth, -100 = all killed)
Settings: 10 µM
Compounds without any hit were thinned out: in the full panel of roughly 83,000, 20% have a hit.
Note to self: growth under 50% means YES, ties and anything higher get NO.

| compound | assigned.category |
| --- | --- |
| Cc1ccc(-c2nc(/C=C3/C(=O)N(C)c4ccc(F)cc43)c3ccccn23)cc1 | NO |
| Cn1c(C(N)=O)cc2c1-c1nc(Nc3ccccc3)ncc1CCC2 | YES |
| CC(C)(C)NC/C(=C\c1ccccc1)C(=O)c1ccccc1 | YES |
| COc1cccc(Cn2c(-c3nonc3N)nc3ccccc32)c1 | YES |
| O=C(N/N=C\c1cc(Cl)ccc1[N+](=O)[O-])c1ccco1 | NO |
| COc1cc(-c2cc(/C=C/C(=O)c3ccc(N)cc3)[nH]n2)cc(OC)c1OC | YES |
| CCOC(=O)C(NC(=O)C(Cl)Cl)C(O)c1ccccc1 (stereo unspecified) | NO |
| O=C(Nc1cccc(-n2cc(-c3ccncc3)c(-c3ccc(O)c(Cl)c3)n2)c1)c1cccc(C(F)(F)F)c1 | YES |
| Cc1cc(C)c(NC(=O)c2sc3nc4c(cc3c2N)C(=O)CCC4)c(C)c1 | YES |
| CCN(CC)CCCC(C)Nc1nc(-c2ccc(OC)cc2)nc2cc(Cl)ccc12 (stereo unspecified) | YES |
| O=C(Nc1cccc(-n2cc(-c3ccncc3)c(-c3ccc(O)c(Cl)c3)n2)c1)Nc1cccc(C(F)(F)F)c1 | YES |
| O=C1NC(=O)N(Cc2ccccc2)CC1Br (stereo unspecified) | YES |
| COc1ccc(-c2nc(-c3nc4ccc(Cl)cc4[nH]3)c3ccccn23)cc1 | NO |
| CNc1ncc(-c2ccc(C(F)(F)F)cc2)c(NC2CCCCCC2)n1 | NO |
| CC1(O)CCC2CC3OC3(C)CCC3OC3(C)CCC1C2(C)C (stereo unspecified) | NO |
| COc1ccc2c(c1)nc(N)c1c3cccnc3cn21 | YES |
| Cc1ccc(NC(=O)CSc2nc3ccccc3c(=O)n2CCc2ccccc2)c(C(=O)O)c1 | NO |
| O=C(c1ccc(Cl)cc1Cl)N1CCOCC1 | NO |
| COc1ccc(-c2nc3ncccn3c2-c2nnc(-c3ccc(F)cc3)o2)cc1 | NO |
| O=C1/C(=C\c2ccc(Cl)cc2)CN(C(=O)c2ccccc2)C/C1=C\c1ccc(Cl)cc1 | YES |

----------
growth: recorded values
System: COLO 205 colon
Assay: NCI-60 one-dose screen, 48 h (100 = growth as untreated, 0 = no growth, -100 = all killed)
Settings: 10 µM
The panel holds about 83,000 compounds, 20% with a hit somewhere; the sample as a whole holds those more often. Active and inactive are the calls of the source. Rule for the calls: active = growth percent below 10; inactive = the rest.
measurement.label: growth

| compound | measurement.label | observed |
| --- | --- | --- |
| COc1cc(-c2nnc(-c3c(-c4ccc(F)cc4)nc4ccccn34)o2)cc(OC)c1OC | growth | 107% (inactive) |
| CCN1CCN(c2nc3ccccc3c3c(=O)c4ccccc4sc23)CC1 | growth | 10.7% (inactive) |
| COc1cc(C(=C2O[C@@H]([C@H]3COC(C)(C)O3)[C@H]3OC(C)(C)O[C@@H]23)c2cc(OC)c(OC)c(OC)c2)cc(OC)c1OC | growth | 117% (inactive) |
| CN(C)CCN1C(=O)c2cccc3c(-c4ccc5ncn(C6CCCCC6)c5c4)ccc(c23)C1=O | growth | 8.59% (active) |
| O=C(O)c1ccc(Cl)cc1Nc1ccc(F)cc1 | growth | 95.7% (inactive) |
| CN1CCC2(CC1)NC(=O)c1c(c3ccc(Cl)c(Cl)c3n1C)C2C#N (stereo unspecified) | growth | 58% (inactive) |
| COc1cc(-c2cc(/C=C/C(=O)c3ccc(N)cc3)[nH]n2)cc(OC)c1OC | growth | -45% (active) |
| CC(C)C[C@H](NC(=O)[C@H](Cc1cccc2ccccc12)NS(=O)(=O)c1cccc2cccnc12)B(O)O | growth | -36.5% (active) |
| CCOC(=O)N/N=C\C(C)=N\NC(=O)OCC | growth | 114% (inactive) |
| N=C(N)c1ccc(-c2ccc(-c3ccccc3)o2)nc1 | growth | -13% (active) |
| COc1ccccc1CNCCCN1C(=O)c2ccc3c4c(ccc(c24)C1=O)C(=O)N(CCCN)C3=O | growth | -87.5% (active) |
| O=C(N/N=C/c1cc2ccccc2c2ccccc12)c1cc(O)c(O)c(O)c1 | growth | 72.7% (inactive) |
| COc1cc(Nc2ccnc(NCCNc3ccnc4cc(Cl)ccc34)n2)cc(OC)c1 | growth | 2.21% (active) |
| COc1ccc(-c2cc(/C=C3\C(=O)Nc4ccc(OC)cc43)[nH]n2)cc1 | growth | 13% (inactive) |
| Clc1ccc(Sc2nc(NC3CC3)nc(Sc3ccc(Cl)cc3)n2)cc1 | growth | 74% (inactive) |
| O=C1C(=O)c2ccccc2C(O)=C1CCCc1ccc(C2CCCCCC2)cc1 | growth | 36.5% (inactive) |
| COc1ccc(-c2nsc3c2NC(=O)CC3c2ccc(F)cc2)cc1 (stereo unspecified) | growth | 9.44% (active) |
| Cc1nc2ccccc2c(N)c1-c1cc(C)c2c(C)nc3ccccc3c2n1 | growth | -91% (active) |
| O=C(CC(c1ccccc1)N1CCOCC1)c1ccccc1 (stereo unspecified) | growth | 116% (inactive) |
| COc1cc(-c2cc(/C=C/C(=O)c3ccc(Cl)c(Cl)c3)[nH]n2)cc(OC)c1OC | growth | 78% (inactive) |
| CCN(CC)CCCC(C)Nc1ccc2ccc(Cl)cc2n1 (stereo unspecified) | growth | 95.7% (inactive) |
| ClCC#CCSc1ncnc2c1ncn2CC#CCCl | growth | 54.4% (inactive) |
| Clc1ccc(-c2cn(-c3ccccc3)c(-c3ccccc3)n2)c(Cl)c1 | growth | -64.3% (active) |
| Nc1c(C(=O)Nc2ccccc2Cl)sc2nc3c(cc12)C(=O)CCC3 | growth | 3.38% (active) |
| CCOC(=O)C(NC(=O)C(Cl)Cl)C(O)c1ccccc1 (stereo unspecified) | growth | 126% (inactive) |
| O=S(=O)(NCCNc1nccc(-c2c(-c3ccc(F)cc3)nc3sccn23)n1)c1ccc2ccccc2c1 | growth | 57.4% (inactive) |
| O=S(=O)(Nc1ccccn1)c1ccc(N=Nc2ccc(O)c3ncccc23)cc1 | growth | 108% (inactive) |
| O=C(Nc1cccc(-n2cc(-c3ccncc3)c(-c3ccc(O)c(Cl)c3)n2)c1)c1ccc(N2CCOCC2)c(C(F)(F)F)c1 | growth | 51.2% (inactive) |
| O=[N+]([O-])c1cccc(-c2ncc(-c3ccc(Cl)cc3Cl)[nH]2)c1 | growth | 89.4% (inactive) |
| N#CCCN1C/C(=C/c2ccc(Br)cc2)C(=O)/C(=C/c2ccc(Br)cc2)C1 | growth | -93.9% (active) |
| C#Cc1ccc(-n2c(/C=C/c3ccc(O)cc3)nc3ncccc3c2=O)cc1 | growth | 110% (inactive) |
| CCCCCCCCCCCC[n+]1ccc(C(N)=O)cc1 | growth | -73% (active) |
| O=C1/C(=C/c2ccc([N+](=O)[O-])o2)Oc2ccccc21 | growth | -66% (active) |
| COc1ccc(-c2nc3sc(C4CC4)nn3c2/C=C2/C(=O)Nc3ccc(OC)cc32)cc1 | growth | 88.5% (inactive) |
| CC/C(=C(/c1ccc(OCCN(C)C)cc1)c1ccc(OC(=O)CCC(=O)c2c(C)[nH]c(/C=C3\N=C(c4ccc[nH]4)C=C3OC)c2C)cc1)c1ccccc1 | growth | 28.3% (inactive) |
| Cc1[nH]nc2c1C(c1cnn(C)c1)C(C#N)=C(N)O2 (stereo unspecified) | growth | 114% (inactive) |
| COc1ccc(N=C2C(=Nc3ccc(OC)cc3)N(c3ccc(N(C)C)cc3)C(=S)N2c2ccc(OC)cc2)cc1 | growth | 109% (inactive) |
| Cc1cccc(NC2=C(C#N)C(=O)NC3(CCCC3)S2)c1 | growth | 127% (inactive) |
| Clc1cc2c(c(CSc3nc4ccccc4n4cccc34)c1)OCOC2 | growth | 84.1% (inactive) |
| CCCCCCCCCCCCC1C/C=C\CCCC(=O)O1 (stereo unspecified) | growth | 113% (inactive) |
| COc1cc2cc3c(nc2cc1OC)CCN3Cc1ccc(NC(=O)Nc2ccc(F)cc2F)cc1 | growth | 90.9% (inactive) |
